Tested on: NCI-H460 lung
Assay: NCI-60 one-dose screen, 48 h (100 = growth as untreated, 0 = no growth, -100 = all killed)
Settings: 10 µM unless noted
This is part of a sample that, as a whole, favours compounds with a hit. Of some 83,000 tested, about 20% had one in any assay.
Catalogue of growth readings, one per entry.
measurement.label: growth (%)

[[record]]
compound = "N#Cc1cccc(F)c1"
measurement_label = "growth"
recorded_result = 118

[[record]]
compound = "CCC(C)N(c1ccc(Cl)cc1)c1nc(-c2ccc(Br)cc2)cs1 (stereo not given)"
measurement_label = "growth"
recorded_result = 98

[[record]]
compound = "C[C@]12C=CC(=O)C=C1CCC1C2[C@@H](O)C[C@@]2(C)C1CC[C@]2(O)C(=O)COC(=O)CCC(=O)O (stereo not given in full)"
measurement_label = "growth"
recorded_result = 103

[[record]]
compound = "COc1ccc2[nH]cc(-c3nc(-c4c[nH]c5ccncc45)cs3)c2c1"
measurement_label = "growth"
recorded_result = -20.7

[[record]]
compound = "COc1cccc(NC(=O)Cn2cc(CN3CCN(c4ccnc5cc(Cl)ccc45)CC3)nn2)c1"
measurement_label = "growth"
recorded_result = 97.5

[[record]]
compound = "Cc1ccc(Sc2oc(-c3ccc(C)cc3)nc2[P+](c2ccccc2)(c2ccccc2)c2ccccc2)cc1"
measurement_label = "growth"
recorded_result = -39.6

[[record]]
compound = "O=C(O)c1[nH]c(=O)[nH]c(=O)c1[N+](=O)[O-]"
measurement_label = "growth"
recorded_result = 115

[[record]]
compound = "O=C(CSc1nc(-c2ccccc2)[nH]c1S(=O)(=O)c1ccccc1)NC1CC1"
measurement_label = "growth"
recorded_result = 102

[[record]]
compound = "O=C(c1cc2ccccc2o1)c1nn(-c2ccccc2)/c(=N/N=Cc2cn(-c3ccccc3)nc2-c2cc3ccccc3oc2=O)s1"
measurement_label = "growth"
recorded_result = 106

[[record]]
compound = "CCOC(=O)c1cc(-c2ccc([N+](=O)[O-])cc2)n(-c2ccc(C(=O)O)c(O)c2)c1C"
measurement_label = "growth"
recorded_result = 65.2

[[record]]
compound = "O=C(Nc1ccc(NC(=O)c2cc(=O)[nH]c3ccccc23)cc1)Nc1cccc(C(F)(F)F)c1"
measurement_label = "growth"
recorded_result = 15.3

[[record]]
compound = "COC(=O)c1cc(-c2ccccc2)[nH]c1N/N=C/c1c(Cl)cccc1Cl"
measurement_label = "growth"
recorded_result = -3.25

[[record]]
compound = "Cc1ccc(/C=C2\\CN(C(=O)OC(C)(C)C)C/C(=C\\c3ccc(C)cc3)C2=O)cc1"
measurement_label = "growth"
recorded_result = 53

[[record]]
compound = "COC(=O)c1c2c(c[n+]([O-])c1C)C(=O)C(NCc1ccccc1)=CC2=O"
measurement_label = "growth"
recorded_result = -30.3

[[record]]
compound = "CCN(CC)CCOc1ccc(-c2c(-c3ccccc3)c(=O)oc3ccccc23)cc1"
measurement_label = "growth"
recorded_result = 95.8

[[record]]
compound = "Cc1ccc(Sc2nnc(/N=C3\\C(=O)Nc4ccccc43)s2)cc1"
measurement_label = "growth"
recorded_result = 104

[[record]]
compound = "CC(C)c1ccc(NC(=O)Nc2ccc(NC(=O)CCCC(=O)NOCc3ccccc3)cc2)cc1"
measurement_label = "growth"
recorded_result = 77.9

[[record]]
compound = "CCOC(=O)c1cnc2ccccc2c1Cl"
measurement_label = "growth"
recorded_result = 93

[[record]]
compound = "C1=CN2CC(c3ccccc3)=NNC2c2ccccc21 (stereo not given)"
measurement_label = "growth"
recorded_result = 98

[[record]]
compound = "O=C(/C=C/c1ccc(Cl)cc1)c1cccc(Nc2nc(Nc3ccccc3)nc(Nc3ccccc3)n2)c1"
measurement_label = "growth"
recorded_result = 103


* * *

Test system: SNB-19 CNS
Assay: NCI-60 one-dose screen, 48 h (100 = growth as untreated, 0 = no growth, -100 = all killed)
Conditions: 10 µM unless noted
This is part of a sample that, as a whole, favours compounds with a hit. Of some 83,000 tested, about 20% had one in any assay.
Catalogue of growth readings, one per entry.
measurement.label: growth (%)

[[record]]
mol_smiles = "O=C(c1ccc(-c2nc(CSc3nc4ccccc4s3)no2)cc1)N1CCSCC1"
target_under_test = "SNB-19 CNS"
unit_text = "%"
recorded_result = 87.7

[[record]]
mol_smiles = "CCSc1nc(NC)c2cc(-c3ccc(C(F)(F)F)cc3)ccc2n1"
target_under_test = "SNB-19 CNS"
unit_text = "%"
recorded_result = 97

[[record]]
mol_smiles = "Cc1cccc2c1NC(=O)C2(c1ccc(O)cc1)c1ccc(O)cc1"
target_under_test = "SNB-19 CNS"
unit_text = "%"
recorded_result = 102

[[record]]
mol_smiles = "CCNC(=O)c1[nH]cc(-c2ccccc2)c1-c1cc(OC)c2c(c1OC)OCO2"
target_under_test = "SNB-19 CNS"
unit_text = "%"
recorded_result = 98.6

[[record]]
mol_smiles = "N#Cc1c(-c2ccc(Cl)cc2)nc(SCC(=O)NC2=NN=C(c3ccccc3)CS2)[nH]c1=O"
target_under_test = "SNB-19 CNS"
unit_text = "%"
recorded_result = 85.8

[[record]]
mol_smiles = "Nc1c(C(=O)Nc2ccncc2)sc2nc3c(cc12)CCCCCC3"
target_under_test = "SNB-19 CNS"
unit_text = "%"
recorded_result = 84.1

[[record]]
mol_smiles = "N#C/C(=C\\c1ccc2ccccc2c1)c1cc2ccccc2[nH]1"
target_under_test = "SNB-19 CNS"
unit_text = "%"
recorded_result = 43.8

[[record]]
mol_smiles = "CN(C)Cc1ccc(NC(=O)c2cncc(C#Cc3cnc(N)c4ncccc34)c2)cc1F"
target_under_test = "SNB-19 CNS"
unit_text = "%"
recorded_result = 87.2

[[record]]
mol_smiles = "CC(C)CCNC(=O)Cn1cccc(NC(=O)OCc2ccccc2)c1=O"
target_under_test = "SNB-19 CNS"
unit_text = "%"
recorded_result = 103

[[record]]
mol_smiles = "Fc1ccc2[nH]cc(-c3nonc3-c3c[nH]c4ccc(Br)cc34)c2c1"
target_under_test = "SNB-19 CNS"
unit_text = "%"
recorded_result = 35.8


* * *

Tested on: SK-OV-3 ovarian
Experiment: NCI-60 one-dose screen, 48 h (100 = growth as untreated, 0 = no growth, -100 = all killed)
Details: 10 µM unless noted
Compounds without any hit were thinned out: in the full panel of roughly 83,000, 20% have a hit.
Catalogue of growth readings, one per entry.
measurement.label: growth (%)

[[record]]
compound = "COc1ccc(-c2nc(/C=C3\\SC(=NCc4ccccc4)NC3=O)c3ccccn23)cc1"
measurement_label = "growth"
recorded_result = -46.7

[[record]]
compound = "C1=C(N2CCCC2)CCC1"
measurement_label = "growth"
recorded_result = 131

[[record]]
compound = "CC(O)c1cnc(/C=C2\\SC(=S)N(Cc3ccccc3)C2=O)s1 (stereo unspecified)"
measurement_label = "growth"
recorded_result = 95.7

[[record]]
compound = "Cc1cc(=O)[nH]c2c(C#N)cnn12"
measurement_label = "growth"
recorded_result = 106

[[record]]
compound = "COCCn1c(-c2csc(-c3cn(C)c4ccc(OC)cc34)n2)cc2cccnc21"
measurement_label = "growth"
recorded_result = 65.2

[[record]]
compound = "O=C(Nc1ccc(-c2nc(N3CCOCC3)c3cccn3n2)cc1)Nc1cccnc1"
measurement_label = "growth"
recorded_result = -24.2

